tested on: DYRK2 (human) (UniProt Q92630)
Sequence (Q92630 whole entry, looked up): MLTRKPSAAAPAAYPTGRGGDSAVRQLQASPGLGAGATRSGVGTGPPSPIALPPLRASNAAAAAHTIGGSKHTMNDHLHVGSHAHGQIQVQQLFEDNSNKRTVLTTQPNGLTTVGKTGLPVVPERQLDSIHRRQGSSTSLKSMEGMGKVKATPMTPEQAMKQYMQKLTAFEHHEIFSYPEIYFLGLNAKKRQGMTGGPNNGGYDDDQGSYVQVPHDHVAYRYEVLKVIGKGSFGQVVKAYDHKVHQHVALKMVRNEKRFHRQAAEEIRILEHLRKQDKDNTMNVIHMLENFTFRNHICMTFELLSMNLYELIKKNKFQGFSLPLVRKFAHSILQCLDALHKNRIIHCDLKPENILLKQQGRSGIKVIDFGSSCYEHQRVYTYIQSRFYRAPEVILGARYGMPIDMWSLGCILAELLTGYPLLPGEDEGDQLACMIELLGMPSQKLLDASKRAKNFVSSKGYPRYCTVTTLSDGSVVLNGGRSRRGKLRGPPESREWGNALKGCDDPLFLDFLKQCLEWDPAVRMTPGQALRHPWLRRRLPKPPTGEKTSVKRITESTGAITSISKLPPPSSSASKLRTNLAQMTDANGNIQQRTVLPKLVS
test description: KINOMEscan competition binding
condition info: compound 10.0 µM
Hi there, I'd appreciate the recorded kinase still bound, per cent of control for every entry that follows.
Answers are plain numbers, in %.

For orientation, consider the following solved cases.
[[record]]
smiles_string = "Cc1ccc2nc(NCCN)c3ncc(C)n3c2c1"
readout_unit = "%"
quantitative_readout = 8.8

[[record]]
smiles_string = "N#Cc1c(NC(=O)c2cccc3ccccc23)sc2c1CCCC2"
readout_unit = "%"
quantitative_readout = 100

[[record]]
smiles_string = "OCCCNc1cc(-c2ccnc(Nc3cccc(Cl)c3)n2)ccn1"
readout_unit = "%"
quantitative_readout = 100

[[record]]
smiles_string = "O=C(NOC[C@H](O)CO)c1ccc(F)c(F)c1Nc1ccc(I)cc1F"
readout_unit = "%"
quantitative_readout = 95

[[record]]
smiles_string = "CN(C)C/C=C/C(=O)Nc1cccc(Nc2ncc3c(n2)N(C)c2ccccc2C(=O)N3C)c1"
readout_unit = "%"
quantitative_readout = 47

[[record]]
smiles_string = "C[C@@H](Oc1cc(-n2cnc3ccc(CN4CCN(C)CC4)cc32)sc1C(N)=O)c1ccccc1C(F)(F)F"
readout_unit = "%"
quantitative_readout = 54

[[record]]
smiles_string = "CCN1CCN(Cc2ccc(Nc3ncc4c(n3)N(C)c3ccccc3C(=O)N4C)cc2C(F)(F)F)CC1"
readout_unit = "%"
quantitative_readout = 97

[[record]]
smiles_string = "C=CC(=O)Nc1cc(NC(=O)c2ccc(C)c(NC(=O)c3ccno3)c2)cc(C(F)(F)F)c1"
readout_unit = "%"
quantitative_readout = 78


Dear colleague, could you send me kinase still bound, per cent of control for each of the items below? Thanks.
1. Cc1ccc(NC(=O)c2cccc(C(C)(C)C#N)c2)cc1Nc1ccc2ncn(C)c(=O)c2c1
2. Cc1cc([C@@H](C)Nc2ccccc2C(=O)O)c2nc(N3CCOCC3)cc(=O)n2c1
3. O=C1Nc2ccc(I)cc2/C1=C/c1cc(Br)c(O)c(Br)c1

Response:
[100, 89, 54]

Dear colleague, could you send me kinase still bound, per cent of control for each of the items below? Thanks.
1. CCC(=O)N1CCN(c2ccc(-n3c(=O)ccc4cnc5ccc(-c6cnc7ccccc7c6)cc5c43)cc2C(F)(F)F)CC1
2. CCCS(=O)(=O)Nc1ccc(F)c(C(=O)c2c[nH]c3ncc(-c4ccc(Cl)cc4)cc23)c1F
3. COc1cc(C(=O)NC2CCN(C)CC2)ccc1Nc1ncc2c(n1)N(C1CCCC1)CCC(=O)N2C(C)C

Response:
1: 86; 2: 100; 3: 100

Prompt: // kinase still bound, per cent of control lookup, key: CCOc1cc2ncc(C#N)c(Nc3ccc(OCc4ccccn4)c(Cl)c3)c2cc1NC(=O)/C=C/CN(C)C
Response: 64

* * *

tested on: AKT3 (human)
test description: KINOMEscan competition binding
condition info: compound 10.0 µM
Hi there, I'd appreciate the recorded kinase still bound, per cent of control for every entry that follows.
Numbers only, in %.

[[record]]
compound = "COc1cc(C(=O)NC2CCN(C)CC2)ccc1Nc1ncc2c(n1)N(C1CCCC1)C(C)CC(=O)N2C (stereo not given)"
tested_on = "AKT3 (human)"
measured_quantity = "kinase still bound, per cent of control"
readout_unit = "%"
quantitative_readout = 100

[[record]]
compound = "O=C(O)c1ccc(Nc2ncc3c(n2)-c2ccc(Cl)cc2C(c2c(F)cccc2F)=NC3)cc1"
tested_on = "AKT3 (human)"
measured_quantity = "kinase still bound, per cent of control"
readout_unit = "%"
quantitative_readout = 100

[[record]]
compound = "Cn1c(=O)n(-c2ccc(C(C)(C)C#N)cc2)c2c3cc(-c4cnc5ccccc5c4)ccc3ncc21"
tested_on = "AKT3 (human)"
measured_quantity = "kinase still bound, per cent of control"
readout_unit = "%"
quantitative_readout = 100


Dear colleague, could you send me kinase still bound, per cent of control for each of the items below? Thanks.
1. C=CC(=O)Nc1cc(NC(=O)c2ccc(C)c(NC(=O)c3ccno3)c2)cc(C(F)(F)F)c1
2. C=CC(=O)Nc1cccc(Nc2nc(N[C@H]3CC[C@H](N(C)C)CC3)nc3c2ncn3C(C)C)c1
3. CCOc1cc2ncc(C#N)c(Nc3ccc(OCc4ccccn4)c(Cl)c3)c2cc1NC(=O)/C=C/CN(C)C
4. COc1cc(N2CCN(C)CC2)ccc1Nc1nc(N)c(C(=O)c2c(Cl)cccc2Cl)s1

Response:
1: 100; 2: 91; 3: 100; 4: 100
